Data origin, for the record: patent US4774330A

- method_description: half-life in vivo after i.v. administration
- condition_context: rat, plasma, iv; 20 mg i.v., rats
Where a name gives a salt, the structure may show the parent alone.
assay_readout: half-life (h)
Numeric answer only, unit h assumed.

Using the record for Cn1nc(O)c(=O)nc1SCC1=C(C(=O)O)N2C(=O)[C@@H](NC(=O)/C(=N\O)c3csc(N)n3)[C@H]2SC1 [Product A, disodium salt] , state its measured half-life.
2.33

###

Would you kindly list MTD at 24 h for each of these molecules?
- method_description: toxicity, 24 hours values
- Format: in vivo
- condition_context: in vivo; oral, 24 hours value; read-out: Tolerated dosage
Where a name gives a salt, the structure may show the parent alone.

Using the record for Cn1nc(O)c(=O)nc1SCC1=C(C(=O)O)N2C(=O)[C@@H](NC(=O)/C(=N\O)c3csc(N)n3)[C@H]2SC1 [Product A, disodium salt] , state its measured MTD at 24 h.
5000 mg/kg

Using the record for Cn1nc(OCOC(=O)C(C)(C)C)c(=O)nc1SCC1=C(C(=O)O)N2C(=O)[C@@H](NC(=O)/C(=N\O)c3csc(N)n3)[C@H]2SC1 [Product B, sodium salt] , state its measured MTD at 24 h.
> 5000 mg/kg
